- assay_system: HLA-DR4 molecule (DRB1*0401) (Homo sapiens, UniProt P01903+P01911, A100K/A169T/F76Y/I96L/K127E/L162R/M171V/N62H/P40V/Q125Y/R42H/S133A/S149N/S66Y/V115G/V209L/W38E)
- Construct: endogenous in cells
- assay_explanation: HLA-DR/peptide competition binding assay, DRB1*0401
Residues, ends and D or L forms follow the SMILES beside them.
test_readout: IC50 (µM)
Write the value in µM as a bare number.

Entry under test: CC(C)C[C@H](NC(=O)[C@@H]1CCCN1C(=O)[C@H](CCCCN)NC(=O)[C@H](CC(N)=O)NC(=O)[C@H](Cc1ccc(O)cc1)NC(=O)[C@H](CCC(N)=O)NC(=O)[C@H](CCC(N)=O)NC(=O)[C@H](CCC(=O)O)NC(=O)[C@H](CC(C)C)NC(=O)[C@@H](NC(=O)[C@@H](NC(=O)CNC(=O)[C@H](Cc1ccc(O)cc1)NC(=O)[C@H](CC(C)C)NC(=O)[C@@H](N)CO)[C@@H](C)O)[C@@H](C)O)C(=O)O [E6 89-103, S L Y G T T L E Q Q Y N K P L] (H-SLYGTTLEQQYNKPL-OH; N-terminus and C-terminus assumed) . Its IC50 was 5

Hello, the source for this data is patent US7488791B2, in case you need it.
